- system.name: T1, human GPVI extracellular region-human Fc fusion protein (hGPVI-hFc) (human)
- T1 construct: Expressed in COS-1, purified on Protein A; also called GPVI-HHH-hFc; hGPVIHHH-hFc
- test.description: SPR BIACORE 3000 as in Example 5
measured.parameter: KD (Relative value)

Entry F1251-1-1 (antibody, V domains shown, rat hybridoma monoclonal antibody) VH: QVNLLQSGAALVKPGASVKLSCKASGYTFTDYYIHWVKQSHGKSLEWIGYINPNSGYTNYNEKFKSKATLTVDKSTNTAYMELSRLTSEDSATYYCTRCNSGYGDWFAYWGQGTLLTVSS VL: DIQMTQSPPVLSASVGDRVTLSCKASQNINKNLDWYQQKHGEAPKLLIYYTNNLQTDIPSRFSGSGSGTDYTLTISSLQPEDVATFYCYQYNSGPGTFGAGTKLELKR — recorded KD (Relative value) = 7.9 relative to F1232-37-2 = 1

Record F1245-4-1 (antibody, V domains shown, mouse hybridoma monoclonal antibody) VH: QVQLQQPGAELVKPGASVKLSCKASGCTFTSYWMHWVKQRPGQGLEWIGMIHPNSDNTNYNEKFKSKATLTVDKSSSTAYMHLSSLTSEDSAVYYCATHYYDYVDYWGQGTTLTVSS VL: NIVMTQTPKFLLVSAGDRVTITCKASQSVSNDVAWYQQKPGQSPKLLIYYASNRYTGVPDRFTGSGYGTDFTFTISTVQAEDLAVYFCQQDYSSPWTFGGGTKLEIKR , field KD (Relative value): 0.00427 relative to F1232-37-2 = 1

Field KD (Relative value) (entry F1249-5-1 (antibody, V domains shown, mouse hybridoma monoclonal antibody) VH: QVQLQQPGAELVKPGASVKLSCKASGYTFTSYWMHWLKQRPGQGLEWIGMIHPNSDITNYNEKFKNKATLTVAKSSSTAYMQLSSLTSEDSAVYYCARLGDYYAMDYWGQGTSVTVSS VL: SIVMTQTPKFLLVSAGDRVTITCKASQSVSNDVTWYQQKPGQSPKLLIYYASNRYTGVPDRFTGSGYGTDFTFTISTVQAEDLAVYFCQQDYSSPPTFGGGTKLEIKR ) reads 0.00285 relative to F1232-37-2 = 1

In plain terms, F1257-3-1 (antibody, V domains shown, rat hybridoma monoclonal antibody) VH: QVTLKESGPGMLQPSKTLSLTCSFSGFSLSTSGMVVSWIRQPSGKSLEWLAAIDWDGDKYYNPSLKSRLTVSKDTSNTQVFLKISSVDIADTATYYCARTPYYGYKEAYYFDYWGQGVKVTVSS VL: DIQMTQSPASLSASLEEIVTITCKASRAIDDYLSWYQQKPGKSPQLLIYDATSLADGVPSRFSGSRSGTQYSLKISRPQVDDSGIYYCLQSYSTPWTFGGGTKLDLKR has a documented KD (Relative value) of 0.00298 relative to F1232-37-2 = 1
